FYI, the data here is from patent EP2815749A1.

ASSAY_INFO: Approximate solubility of pomalidomide at 50°C in 96 solvent compositions (LC)
Assay type: physicochemical
PROTOCOL_CONDITIONS: binary solvent composition (main solvent and co-solvent), 50 °C, organic solvent or mixture, thermodynamic from solid, solvent system B11 of Table 7, read-out: Approximate Measured Solubility
MEASURE: solubility at 2 h (µg/mL)
Give just the numeric value; µg/mL need not be written.

Lab note: measured solubility at 2 h of Nc1cccc2c1C(=O)N(C1CCC(=O)NC1=O)C2=O (stereo not shown) [Pomalidomide] was 180

###

ASSAY_INFO: Approximate solubility of pomalidomide at 50°C in 96 solvent compositions (LC)
Assay type: physicochemical
PROTOCOL_CONDITIONS: binary solvent mixture (main solvent and co-solvent), 50 °C, organic solvent or mixture, thermodynamic from solid, solvent system H11 of Table 7, read-out: Approximate Measured Solubility
MEASURE: solubility at 2 h

Kindly note the recorded solubility at 2 h for Nc1cccc2c1C(=O)N(C1CCC(=O)NC1=O)C2=O (stereo not shown) [Pomalidomide] , which is 1.96 mg/mL

###

ASSAY_INFO: Approximate solubility of pomalidomide at 50°C in 96 solvent compositions (LC)
Format: physicochemical
PROTOCOL_CONDITIONS: binary solvent composition (main solvent and co-solvent), 50 °C, organic solvent or mixture, thermodynamic from solid, solvent system C12 of Table 7, read-out: Approximate Measured Solubility
MEASURE: solubility at 2 h

The recorded solubility at 2 h for Nc1cccc2c1C(=O)N(C1CCC(=O)NC1=O)C2=O (stereo not shown) [Pomalidomide] is 340 µg/mL

###

ASSAY_INFO: Solubility of pomalidomide in various solvents
Type: physicochemical
PROTOCOL_CONDITIONS: methylene chloride, 25 °C, organic solvent or mixture, thermodynamic from solid, Methylene chloride; ambient temperature; read-out: Solubility
MEASURE: solubility (µg/mL)
# output: bare number, implied unit µg/mL

Form field solubility, entry Nc1cccc2c1C(=O)N(C1CCC(=O)NC1=O)C2=O (stereo not shown) [Pomalidomide] : 1450

###

ASSAY_INFO: Approximate solubility of pomalidomide at 50°C in 96 solvent compositions (LC)
Format: physicochemical
PROTOCOL_CONDITIONS: binary solvent mixture (main solvent and co-solvent), 50 °C, organic solvent or mixture, thermodynamic from solid, solvent system G1 of Table 7, read-out: Approximate Measured Solubility
MEASURE: solubility at 2 h (µg/mL)
Numeric only. Scale: µg/mL

# solubility at 2 h of Nc1cccc2c1C(=O)N(C1CCC(=O)NC1=O)C2=O (stereo not shown) [Pomalidomide] = 2690

###

ASSAY_INFO: Approximate solubility of pomalidomide at 50°C in 96 solvent compositions (LC)
Type: physicochemical
PROTOCOL_CONDITIONS: solvent system A2 of Table 7, 50 °C, organic solvent or mixture, thermodynamic from solid, solvent system A2 of Table 7, read-out: Approximate Measured Solubility
MEASURE: solubility at 2 h
Record the result as number plus unit.

Looking up Nc1cccc2c1C(=O)N(C1CCC(=O)NC1=O)C2=O (stereo not shown) [Pomalidomide] , I found its solubility at 2 h recorded as 8190 µg/mL

###

ASSAY_INFO: Approximate solubility of pomalidomide at 50°C in 96 solvent compositions (LC)
Format: physicochemical
PROTOCOL_CONDITIONS: binary solvent composition (main solvent and co-solvent), 50 °C, organic solvent or mixture, thermodynamic from solid, solvent system C5 of Table 7, read-out: Approximate Measured Solubility
MEASURE: solubility at 2 h (µg/mL)
The response must be a number in µg/mL with no trailing unit.

Kindly note the recorded solubility at 2 h for Nc1cccc2c1C(=O)N(C1CCC(=O)NC1=O)C2=O (stereo not shown) [Pomalidomide] , which is 470

###

ASSAY_INFO: Approximate solubility of pomalidomide at 50°C in 96 solvent compositions (LC)
Format: physicochemical
PROTOCOL_CONDITIONS: binary solvent composition (main solvent and co-solvent), 50 °C, organic solvent or mixture, thermodynamic from solid, solvent system B8 of Table 7, read-out: Approximate Measured Solubility
MEASURE: solubility at 2 h
Hi, when you answer, please include the unit after the number. Thanks!

Please fill in: solubility at 2 h reported for Nc1cccc2c1C(=O)N(C1CCC(=O)NC1=O)C2=O (stereo not shown) [Pomalidomide] = 1720 µg/mL

###

ASSAY_INFO: Approximate solubility of pomalidomide at 50°C in 96 solvent compositions (LC)
Assay type: physicochemical
PROTOCOL_CONDITIONS: binary solvent composition (main solvent and co-solvent), 50 °C, organic solvent or mixture, thermodynamic from solid, solvent system D2 of Table 7, read-out: Approximate Measured Solubility
MEASURE: solubility at 2 h (µg/mL)
Give the number; µg/mL is assumed, so skip it.

Consider Nc1cccc2c1C(=O)N(C1CCC(=O)NC1=O)C2=O (stereo not shown) [Pomalidomide] . Its measured solubility at 2 h is 670

###

ASSAY_INFO: Approximate solubility of pomalidomide at 50°C in 96 solvent compositions (LC)
Type: physicochemical
PROTOCOL_CONDITIONS: binary solvent composition (main solvent and co-solvent), 50 °C, organic solvent or mixture, thermodynamic from solid, solvent system D5 of Table 7, read-out: Approximate Measured Solubility
MEASURE: solubility at 2 h (µg/mL)
Numbers only; they are read as µg/mL.

Lab note: Nc1cccc2c1C(=O)N(C1CCC(=O)NC1=O)C2=O (stereo not shown) [Pomalidomide] gave solubility at 2 h of 1940

###

ASSAY_INFO: Solubility of pomalidomide in various solvents
Format: physicochemical
PROTOCOL_CONDITIONS: acetone, 25 °C, organic solvent or mixture, thermodynamic from solid, Acetone; ambient temperature; read-out: Solubility
MEASURE: solubility (µg/mL)
Numeric only. Scale: µg/mL

solubility reported for this molecule Nc1cccc2c1C(=O)N(C1CCC(=O)NC1=O)C2=O (stereo not shown) [Pomalidomide] : 1990

###

ASSAY_INFO: Approximate solubility of pomalidomide at 50°C in 96 solvent compositions (LC)
Format: physicochemical
PROTOCOL_CONDITIONS: binary solvent composition (main solvent and co-solvent), 50 °C, organic solvent or mixture, thermodynamic from solid, solvent system B3 of Table 7, read-out: Approximate Measured Solubility
MEASURE: solubility at 2 h (µg/mL)
Expressed in µg/mL, but write only the number.

For record Nc1cccc2c1C(=O)N(C1CCC(=O)NC1=O)C2=O (stereo not shown) [Pomalidomide] the listed solubility at 2 h is 1030

###

ASSAY_INFO: Approximate solubility of pomalidomide at 50°C in 96 solvent compositions (LC)
Format: physicochemical
PROTOCOL_CONDITIONS: binary solvent mixture (main solvent and co-solvent), 50 °C, organic solvent or mixture, thermodynamic from solid, solvent system F8 of Table 7, read-out: Approximate Measured Solubility
MEASURE: solubility at 2 h

Recorded result, Nc1cccc2c1C(=O)N(C1CCC(=O)NC1=O)C2=O (stereo not shown) [Pomalidomide] , solubility at 2 h: 40 µg/mL

###

ASSAY_INFO: Approximate solubility of pomalidomide at 50°C in 96 solvent compositions (LC)
Format: physicochemical
PROTOCOL_CONDITIONS: binary solvent composition (main solvent and co-solvent), 50 °C, organic solvent or mixture, thermodynamic from solid, solvent system B5 of Table 7, read-out: Approximate Measured Solubility
MEASURE: solubility at 2 h
Remember to quote the unit after the number.

So for Nc1cccc2c1C(=O)N(C1CCC(=O)NC1=O)C2=O (stereo not shown) [Pomalidomide] , the logged solubility at 2 h turned out to be 360 µg/mL

###

ASSAY_INFO: Approximate solubility of pomalidomide at 50°C in 96 solvent compositions (LC)
Type: physicochemical
PROTOCOL_CONDITIONS: binary solvent mixture (main solvent and co-solvent), 50 °C, organic solvent or mixture, thermodynamic from solid, solvent system E3 of Table 7, read-out: Approximate Measured Solubility
MEASURE: solubility at 2 h (µg/mL)
// note: answer is a bare numeric in µg/mL

solubility at 2 h recorded for this molecule, Nc1cccc2c1C(=O)N(C1CCC(=O)NC1=O)C2=O (stereo not shown) [Pomalidomide] , is 320

###

ASSAY_INFO: Approximate solubility of pomalidomide at 50°C in 96 solvent compositions (LC)
Assay type: physicochemical
PROTOCOL_CONDITIONS: binary solvent mixture (main solvent and co-solvent), 50 °C, organic solvent or mixture, thermodynamic from solid, solvent system F1 of Table 7, read-out: Approximate Measured Solubility
MEASURE: solubility at 2 h (µg/mL)
State just the number; it will be interpreted in µg/mL.

According to the records, this compound Nc1cccc2c1C(=O)N(C1CCC(=O)NC1=O)C2=O (stereo not shown) [Pomalidomide] displays solubility at 2 h of 100

###

ASSAY_INFO: Approximate solubility of pomalidomide at 50°C in 96 solvent compositions (LC)
Format: physicochemical
PROTOCOL_CONDITIONS: organic solvent or mixture, thermodynamic from solid, solvent system H9 of Table 7, read-out: Approximate Measured Solubility
MEASURE: solubility at 2 h (µg/mL)
Please give a number only; it is taken to be in µg/mL.

The compound listed as Nc1cccc2c1C(=O)N(C1CCC(=O)NC1=O)C2=O (stereo not shown) [Pomalidomide] has a reported solubility at 2 h of 860
